- assay_target: human CYP11B1 (Homo sapiens, UniProt P15538)
- Sequence (P15538 25-503): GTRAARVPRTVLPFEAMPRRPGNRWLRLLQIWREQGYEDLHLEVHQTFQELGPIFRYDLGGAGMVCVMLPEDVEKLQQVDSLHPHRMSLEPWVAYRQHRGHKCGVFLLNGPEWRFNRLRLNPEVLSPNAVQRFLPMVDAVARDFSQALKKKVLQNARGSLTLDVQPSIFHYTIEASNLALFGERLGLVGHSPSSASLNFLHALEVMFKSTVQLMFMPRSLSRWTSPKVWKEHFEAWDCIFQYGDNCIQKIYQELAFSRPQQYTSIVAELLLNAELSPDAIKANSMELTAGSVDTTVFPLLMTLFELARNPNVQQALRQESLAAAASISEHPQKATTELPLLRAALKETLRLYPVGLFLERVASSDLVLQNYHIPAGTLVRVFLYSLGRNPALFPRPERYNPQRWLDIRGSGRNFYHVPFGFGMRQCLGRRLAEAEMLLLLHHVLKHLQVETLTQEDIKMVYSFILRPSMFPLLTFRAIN
- run_description: G-402 cellular enzyme assay, human CYP11B1 (cortisol release, HTRF)
- condition_context: G-402 cells expressing human CYP11B1; 1 μM Deoxycortisol
pEC50: −log10 of the molar value.
quantity: pEC50

Find the recorded pEC50 belonging to COC(=O)[C@@H]1CCCN1Cc1cncc(-c2ccc3c(c2)CCC(=O)N3C)c1 and report it. 7.00

(1) Cc1noc(C)c1C(=O)NCCOc1cncc(-c2ccc3c(c2)CCC(=O)N3C)c1
(2) Cc1noc(C)c1C(=O)NCc1cncc(-c2cc(Cl)c3c(c2)CCC(=O)N3)c1
Task for the reader: decide whether 1 or 2 has the larger pEC50. Refer to your chosen entry by its label in the reply. 1
(1: 5.84, 2: 5.40)

(a) CCS(=O)(=O)N1CCC[C@H](Oc2cncc(-c3ccc4c(c3)CCC(=O)N4C)c2)C1
(b) Cc1cccnc1C(=O)NC1(c2cncc(-c3ccc4c(c3)CCC(=O)N4C)c2)CC1
Of the pair a and b , name the member with the lesser recorded pEC50. // return label of chosen record a
